B1: STEAP1 (parent)
chain: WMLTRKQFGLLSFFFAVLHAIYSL

Variants of: B1
method_notes: protein stability index of a GFP-peptide fusion (GPS, HEK-293T) (PSI 1-6); higher = more stable;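 note: lentivirally expressed fusions sorted by FACS into six bins by GFP to DsRed ratio, PSI derived from sequencing read proportions per bin multiplied by bin number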
conditions_used: c terminus: a fixed tail appended
Think of 2 as a floor: if protein stability index stands on it or above, it is yes (1); beneath it, no (0).

mutation_descriptor | label_value
S23A | no (0)

Does the variant F15H have recorded protein stability index that is 2 or more? no (0)

Does the variant F8P have recorded protein stability index that is 2 or more? no (0)

Does the variant L18D have recorded protein stability index that is 2 or more? yes (1)

Does the variant F13V have recorded protein stability index that is 2 or more? yes (1)

Does the variant L3N have recorded protein stability index that is 2 or more? yes (1)

Does the variant A16D have recorded protein stability index that is 2 or more? yes (1)
